# system: formaldehyde dehydrogenase (FDH) (Pseudomonas putida)
# Construct: purchased Sigma-Aldrich
# Sequence (P46154 whole entry): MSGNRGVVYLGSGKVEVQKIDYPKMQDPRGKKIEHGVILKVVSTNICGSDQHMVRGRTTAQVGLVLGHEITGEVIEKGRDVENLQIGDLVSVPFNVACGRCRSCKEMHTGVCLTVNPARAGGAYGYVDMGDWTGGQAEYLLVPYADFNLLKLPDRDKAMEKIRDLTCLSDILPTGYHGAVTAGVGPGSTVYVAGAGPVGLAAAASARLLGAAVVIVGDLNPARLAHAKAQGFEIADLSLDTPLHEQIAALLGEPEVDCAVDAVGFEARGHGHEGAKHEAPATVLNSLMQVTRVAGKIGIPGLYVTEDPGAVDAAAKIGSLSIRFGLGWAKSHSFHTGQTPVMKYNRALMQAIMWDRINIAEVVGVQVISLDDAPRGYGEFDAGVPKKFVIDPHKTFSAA
# measurement notes: FDH coupling enzyme counterscreen
# Format: biochemical
# experimental parameters: Table S1; FDH counterscreen
reported endpoint: qHTS Data: jmjd2e fdh CurveClass

>>> print(df.to_string())
                                    compound                                    system          meas_value
 0  C=CCn1c(SCC(=O)c2ccc(O)c(O)c2)nnc1-c1cccnc1  formaldehyde dehydrogenase (FDH) (Pseudomonas putida)  Poor quality curve
 1  CC(CCc1ccccc1)NC(=O)CN1CCN(c2ccc(O)cc2)CC1 (stereo not shown)  formaldehyde dehydrogenase (FDH) (Pseudomonas putida)            Inactive
 2         Cc1noc(C)c1C(=O)NNc1ccc(C(C)C)cc1  formaldehyde dehydrogenase (FDH) (Pseudomonas putida)            Inactive
 3     O=c1c(O)c(Br)ccc2c(Br)c(O)c(O)c(O)c12  formaldehyde dehydrogenase (FDH) (Pseudomonas putida)  Poor quality curve
 4  COc1ccc(Cn2c(O)c(/C=N/NC(=O)c3ccncc3)c(=O)[nH]c2=O)cc1  formaldehyde dehydrogenase (FDH) (Pseudomonas putida)  Poor quality curve
 5  COc1ccc(/C=C/C(=O)NC(=S)NNC(=O)c2cnccn2)cc1  formaldehyde dehydrogenase (FDH) (Pseudomonas putida)            Inactive
 6   CCN(CC)c1ccc(N=Cc2c(C)[nH]c3ccccc23)cc1  formaldehyde dehydrogenase (FDH) (Pseudomonas putida)            Inactive
 7      O=c1cc2c(=O)oc3cc(O)c(O)oc3c2c(O)c1O  formaldehyde dehydrogenase (FDH) (Pseudomonas putida)            Inactive
 8       O=c1cc(O)c2sc(Nc3ccc(F)cc3)nc2[nH]1  formaldehyde dehydrogenase (FDH) (Pseudomonas putida)            Inactive
 9           C[C@H](N)[C@H](O)c1ccc(O)c(O)c1  formaldehyde dehydrogenase (FDH) (Pseudomonas putida)            Inactive
10     Cc1ccc(O)c(N=NC2=C(O)CC(C)(C)CC2=O)c1  formaldehyde dehydrogenase (FDH) (Pseudomonas putida)            Inactive
11      CCOC(=O)C1CCN(Cc2ccc(O)c3ncccc23)CC1  formaldehyde dehydrogenase (FDH) (Pseudomonas putida)        Inconclusive
12             O=c1nc(N/N=C/c2ccccn2)cn[nH]1  formaldehyde dehydrogenase (FDH) (Pseudomonas putida)        Inconclusive

###

# system: formaldehyde dehydrogenase (FDH) (Pseudomonas putida)
# Construct: purchased Sigma-Aldrich
# measurement notes: FDH coupling enzyme counterscreen
# Assay type: biochemical
# experimental parameters: Table S1; FDH counterscreen
reported endpoint: qHTS Data: jmjd2e fdh CurveClass

>>> print(df.to_string())
                                   compound                 reported_endpoint  meas_value
0    COc1ccccc1NC(=S)NNC(=O)c1nn(C)c(C)c1Br  qHTS Data: jmjd2e fdh CurveClass    Inactive
1  O=[N+]([O-])c1ccc(O)c(/C=N/Nc2ccc(Cl)nn2)c1  qHTS Data: jmjd2e fdh CurveClass    Inactive
2  NC(Cc1cc(O)c(O)cc1O)C(=O)O (stereo not drawn)  qHTS Data: jmjd2e fdh CurveClass    Inactive

###

# system: JMJD2E (Homo sapiens)
# Sequence (B2RXH2 1-337): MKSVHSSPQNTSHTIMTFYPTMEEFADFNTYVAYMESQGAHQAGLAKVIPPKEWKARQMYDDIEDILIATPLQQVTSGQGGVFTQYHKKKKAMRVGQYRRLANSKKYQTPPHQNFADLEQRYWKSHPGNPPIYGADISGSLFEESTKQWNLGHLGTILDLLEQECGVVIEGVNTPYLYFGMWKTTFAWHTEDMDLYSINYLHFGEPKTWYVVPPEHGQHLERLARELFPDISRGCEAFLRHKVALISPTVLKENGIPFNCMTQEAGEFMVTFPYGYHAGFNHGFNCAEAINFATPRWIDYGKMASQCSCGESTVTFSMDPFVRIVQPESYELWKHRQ
# measurement notes: JMJD2E FDH-coupled assay under low and high iron conditions (iron chelation profile)
# Assay type: biochemical
# Parameters: The catalytic domain of human JMJD2E (residues 1–337); His6 (N); made in house; host or cells: E. coli
# experimental parameters: Table S1; low iron 2.5 µM FAS; unit not in table, from Figure 2; read-out: qHTS Data: jmjd2e fas2.5um IC50
Items are presented alongside their recorded log10(IC50).
reported endpoint: log10(IC50) (log10 of the value in µM)

>>> print(df.to_string())
                                    compound                 system  meas_value
 0  O=C1C=CC2=C3c4cc(O)c(O)cc4CC3(O)COC2=C1O (stereo not drawn) [compound 26749676]  JMJD2E (Homo sapiens)        0.30
 1      O=Cc1ccc(O)c(O)c1 [compound 8139931]  JMJD2E (Homo sapiens)        0.55
 2  Cc1ccc(N2C(=O)CC(Sc3ncn[nH]3)C2=O)cc1 (stereo not drawn) [compound 14726735]  JMJD2E (Homo sapiens)        0.30
 3  Cl.NC(CO)C(=O)NNCc1ccc(O)c(O)c1O (stereo not drawn) [compound 855739]  JMJD2E (Homo sapiens)        0.25
 4  Cc1ccc(N2C(=O)CC(Sc3ncn[nH]3)C2=O)cc1C (stereo not drawn) [compound 14726720]  JMJD2E (Homo sapiens)        0.15
 5  Oc1ccc(NCc2cccc(OCc3ccccc3)c2)cc1 [compound 24795995]  JMJD2E (Homo sapiens)        1.15
 6  CCOC(=O)c1ccc(CC(=O)c2ccc(O)c(O)c2O)o1 [compound 24797852]  JMJD2E (Homo sapiens)        0.15
 7  Oc1c(C(Nc2nccs2)c2ccc(C(F)(F)F)cc2)ccc2cccnc12 (stereo not drawn) [compound 24832893]  JMJD2E (Homo sapiens)        1.45
 8  CCOC(=O)Cc1csc(-n2sc3ccccc3c2=O)n1 [compound 3716597]  JMJD2E (Homo sapiens)        0.85
 9  C=CCc1c(C)nc(C)nc1N/N=C/c1ccccc1O [compound 14741635]  JMJD2E (Homo sapiens)        0.50
10  Cc1ccc(O)c(N=NC2=C(O)CC(C)(C)CC2=O)c1 [compound 22414549]  JMJD2E (Homo sapiens)        0.75
11  COc1ccc(Cn2c(O)c(/C=N/NC(=O)c3ccncc3)c(=O)[nH]c2=O)cc1 [compound 26667135]  JMJD2E (Homo sapiens)        0.95
12  O=C(/C=C/c1ccccc1)NC(=S)NNC(=O)c1cnccn1 [compound 26725782]  JMJD2E (Homo sapiens)        0.85
13  NC(=O)c1ccc(-n2nnnc2SCC(=O)c2ccc(O)c(O)c2)cc1 [compound 24821381]  JMJD2E (Homo sapiens)        0.90
14  COc1cccc(/C=N/NC(=O)CNC(=O)COc2cccc(C)c2)c1O [compound 26660958]  JMJD2E (Homo sapiens)        0.65
15            Oc1ccccc1O [compound 50105556]  JMJD2E (Homo sapiens)        1.00
16  CN1CCN(Cc2cc(COCc3ccccc3)c3cccnc3c2O)CC1 [compound 4248346]  JMJD2E (Homo sapiens)        0.85
17  CCc1ccc2c(O)c3c(cc2c1C(=O)OC)C(=O)c1c(O)ccc(O)c1C3=O [compound 26749155]  JMJD2E (Homo sapiens)        0.60
18  O=c1c(O)c(Br)ccc2c(Br)c(O)c(O)c(O)c12 [compound 50110019]  JMJD2E (Homo sapiens)        0.70
19  COC(=O)c1cc(=O)c(O)c2c(O)c(O)ccc2c1 [compound 26749939]  JMJD2E (Homo sapiens)        0.90
20  Cl.NCCc1ccc(O)c(O)c1 [compound 50106387]  JMJD2E (Homo sapiens)        1.05
21  Cc1cc2c(C(C)C)c(O)c(O)c(C=O)c2c(O)c1-c1c(C)cc2c(C(C)C)c(O)c(O)c(C=O)c2c1O [compound 11112318]  JMJD2E (Homo sapiens)        0.05
22  CN(N=O)c1ccc(O)c(O)c1 [compound 50106719]  JMJD2E (Homo sapiens)        0.90
23  O=c1c(O)cccc2cc(O)c(O)c(O)c12 [compound 26665710]  JMJD2E (Homo sapiens)        0.35

###

# system: JMJD2E (Homo sapiens)
# measurement notes: JMJD2E FDH-coupled assay under low and high iron conditions (iron chelation profile)
# Format: biochemical
# Design: The catalytic domain of human JMJD2E (residues 1–337); His6 (N); made in house; host or cells: E. coli
# experimental parameters: Table S1; high iron
reported endpoint: qHTS Data: jmjd2e fas20um CurveClass

In [3]: df
Out[3]:
                                    molecule                 system          meas_value
 0  CCN1/C(=C\c2ccc3ccccc3[n+]2CC)Sc2cc(C)ccc21.[I-] [compound 24782097]  JMJD2E (Homo sapiens)  Poor quality curve
 1  O=c1c(O)c(-c2ccc(O)c(O)c2)oc2c(O)c(O)cc(O)c12 [compound 26750048]  JMJD2E (Homo sapiens)            Inactive
 2  Cc1ccc(N2C(=O)CC(Sc3ncn[nH]3)C2=O)cc1 (stereo not shown) [compound 14726735]  JMJD2E (Homo sapiens)  Poor quality curve
 3  CC(C)c1ccc(N2C(=O)CC(Sc3ncn[nH]3)C2=O)cc1 (stereo not shown) [compound 14726804]  JMJD2E (Homo sapiens)  Poor quality curve
 4  COc1cccc(/C=N/NC(=O)CNC(=O)COc2cccc(C)c2)c1O [compound 26660958]  JMJD2E (Homo sapiens)        Inconclusive
 5  O=C1CC(Sc2ncn[nH]2)C(=O)N1c1ccccc1 (stereo not shown) [compound 14730480]  JMJD2E (Homo sapiens)            Inactive
 6  Oc1cc2c(cc1O)C1c3ccc(O)c(O)c3OCC1(O)C2 (stereo not shown) [compound 26749470]  JMJD2E (Homo sapiens)  Poor quality curve
 7      O=Cc1ccc(O)c(O)c1 [compound 8139931]  JMJD2E (Homo sapiens)            Inactive
 8  CN[C@@H](C)[C@H](O)c1ccccc1.CN[C@@H](C)[C@H](O)c1ccccc1.O=S(=O)(O)O [compound 50106282]  JMJD2E (Homo sapiens)                 1.2
 9  O=c1c(O)c(Br)ccc2c(Br)c(O)c(O)c(O)c12 [compound 50110019]  JMJD2E (Homo sapiens)        Inconclusive
10  CN(C)c1ccnc(C(=O)O)c1 [compound 24815512]  JMJD2E (Homo sapiens)  Poor quality curve
11            Oc1ccccc1O [compound 50105556]  JMJD2E (Homo sapiens)  Poor quality curve
12  CCOC(=O)Cc1csc(-n2sc3ccccc3c2=O)n1 [compound 3716597]  JMJD2E (Homo sapiens)            Inactive
